Measured mean by item
- tested-on: SARS-CoV-2 3CLpro (Severe acute respiratory syndrome coronavirus 2)
- measurement-notes: biochemical
- Assay type: biochemical
- Design: unit not given here
- test-parameters: sheet LOPAC_screen_w_protease; LOPAC1280 primary screen with protease, 5 µM compound; mean of the two replicates
Respond with the number and no other words.

Sample records with mean:
O=c1[nH]c2cc(Cl)c(Cl)cc2[nH]c1=O	4.331
O=C(O)C1CN(CCCP(=O)(O)O)CCN1 (racemic) [(±)-CPP]	4.122
O=C(O)/C=C/C(=O)O.O=C(O)/C=C/C(=O)O.O=C(O)/C=C/C(=O)O.O=C1CCCN1CC#CCN1CCCC1.O=C1CCCN1CC#CCN1CCCC1 [Oxotremorine sesquifumarate salt]	4.476
N[C@@H](Cc1ccc(O)c(O)c1)C(=O)O [L-3,4-Dihydroxyphenylalanine]	4.21
CNc1ncnc2c1ncn2[C@H]1C[C@H](OP(=O)(O)O)[C@@H](COP(=O)(O)O)O1	4.143

Please look up its mean: COc1cc(C(O)CN)ccc1O.Cl (racemic) [(±)-Normetanephrine hydrochloride]
4.101

Which value of mean has been reported for `COc1ccc2[nH]c(I)c(CCNC(C)=O)c2c1` in the records?
5.613

// lookup mean for CC1OC(C[N+](C)(C)C)CS1.[I-] (centres unmarked) [OXA-22 iodide]
6.327

---

The following compounds are shown together with reported mean (LOPAC_screen_w_protease) values.
- tested-on: SARS-CoV-2 3CLpro (Severe acute respiratory syndrome coronavirus 2)
- measurement-notes: biochemical
- Type: biochemical
- Design: unit not given here
- test-parameters: LOPAC1280 primary screen with protease, 5 µM compound, mean of two replicates
# print the numeric value only

NCCCC(=O)O [GABA]	1.638
Br.CCCN(CCC)C1CCc2ccc(O)cc2C1 (racemic) [(±)-7-Hydroxy-DPAT hydrobromide]	1.681
COc1ccc2c(c1OC)C(=O)OC2C1c2cc3c(cc2CCN1C)OCO3 (single isomer, unassigned; (+)) [(+)-Hydrastine]	1.61

Data request, read-out mean (LOPAC_screen_w_protease), for OC[C@H]1O[C@@H](n2cnc3c(Nc4ccccc4)ncnc32)[C@H](O)[C@@H]1O [N6-Phenyladenosine]
1.447

May I ask what mean (LOPAC_screen_w_protease) has been recorded for CCN1CCC[C@H]1CNC(=O)c1cc(S(N)(=O)=O)ccc1OC [(-)-Sulpiride] ?
1.652

What value of mean (LOPAC_screen_w_protease) has been recorded for this entry: N#C/C(=C\c1ccc(O)c(O)c1)C(=O)NCCCNC(=O)/C(C#N)=C/c1ccc(O)c(O)c1 [Tyrphostin AG 537]
1.443

---

- tested-on: SARS-CoV-2 3CLpro (Severe acute respiratory syndrome coronavirus 2, UniProt P0DTD1)
- measurement-notes: biochemical
- Type: biochemical
- test-parameters: 4 h, read-out: Replicate_2
Structures can show the parent of a compound that is named as a salt.
Each entry below carries its recorded inhibition at 5 µM.
Report the figure in % without appending any unit label.

CC(=O)N[C@@H](CS)C(=O)O [N-Acetyl-L-Cysteine]	0.723

# input compound: CNCCCC12CCC(c3ccccc31)c1ccccc12 [Maprotiline hydrochloride] ; wanted: its inhibition at 5 µM
5.55

GET /values?readout=inhibition at 5 µM&item= NNCCc1ccccc1 [Phenelzine sulfate]
-1.72

Need inhibition at 5 µM, item O=c1c(O)c(-c2ccc(O)cc2O)oc2cc(O)cc(O)c12 [Morin]
5.63

---

Reported inhibition at 5 µM values follow for various molecules
- tested-on: SARS-CoV-2 3CLpro (Severe acute respiratory syndrome coronavirus 2)
- measurement-notes: biochemical
- Format: biochemical
- test-parameters: 4 h, sheet LOPAC_screen_w_protease; LOPAC1280 primary screen at 5 µM, with protease; mean of the two replicates; read-out: mean
Where a name gives a salt, the structure may show the parent alone.
Just the number in %, nothing appended.

Solved entries:
O=c1c2ccccc2nc2n1CCc1c-2[nH]c2ccccc12 [Rutaecarpine]	0.598
NC(=O)CC[C@H](N)C(=O)O [L-Glutamine]	0.871
Nc1c(S(=O)(=O)O)cc(Nc2ccc(Nc3nc(Cl)nc(Nc4cccc(S(=O)(=O)O)c4)n3)c(S(=O)(=O)O)c2)c2c1C(=O)c1ccccc1C2=O [Reactive Blue 2]	0.827

Bench note: what inhibition at 5 µM did CCC1(C2=NCCN2)Cc2ccccc2O1 (stereo not shown) [Efaroxan hydrochloride] show?
0.692

---

- tested-on: SARS-CoV-2 3CLpro (Severe acute respiratory syndrome coronavirus 2)
- measurement-notes: biochemical
- Assay type: biochemical
- Parameters: unit not given here
- test-parameters: sheet LOPAC_screen_w_protease; primary screen with protease, compound at 5 µM; mean of two replicates
metric: mean
Provide a numeric answer; units are not to be included.

N#CC(=C(/N)Sc1ccccc1N)/C(C#N)=C(/N)Sc1ccccc1N	2.655
Cl.NC1(C(=O)O)CCCCC1	2.729
NC(CP(=O)(O)O)C(=O)O (racemic) [(±)-2-Amino-3-phosphonopropionic acid]	3.099
N[C@H](CCCCCP(=O)(O)O)C(=O)O [D(-)-2-Amino-7-phosphonoheptanoic acid]	3.051

Next compound, please.
// lookup mean | system=SARS-CoV-2 3CLpro (Severe acute respiratory syndrome coronavirus 2) | key= `COc1cc(/C=C(\C#N)C(=O)c2ccc(O)c(O)c2)cc(I)c1O`
2.606

---

- tested-on: SARS-CoV-2 3CLpro (Severe acute respiratory syndrome coronavirus 2, UniProt P0DTD1)
- measurement-notes: biochemical
- Assay type: biochemical
- Design: unit not given here
- test-parameters: sheet LOPAC_screen_w_protease; primary screen of LOPAC1280 at 5 µM with protease; replicate 2
metric: Replicate_2
Reply: number alone, nothing else.

N[C@@H]1CONC1=O (racemic)	3.989
COc1cc(C=C(C#N)C#N)cc(O)c1O	3.4006
Cc1nc2sccn2c(=O)c1CCN1CCC(=C(c2ccccc2)c2ccc(F)cc2)CC1	2.833
CN1CCc2cc(Cl)c(O)cc2[C@@H](c2ccccc2)C1.Cl [R(+)-SCH-23390 hydrochloride]	2.274
COC(=O)[C@@H](N)CCCN=C(N)N[N+](=O)[O-].Cl	4.171
CCCN(CCC)CCc1c[nH]c2ccc(C(N)=O)cc12.O=C(O)/C=C\C(=O)O	3.653
O=C(Nc1cc(C(=O)Nc2ccc(S(=O)(=O)[O-])cc2S(=O)(=O)[O-])cc(C(=O)Nc2ccc(S(=O)(=O)[O-])cc2S(=O)(=O)[O-])c1)Nc1cc(C(=O)Nc2ccc(S(=O)(=O)[O-])cc2S(=O)(=O)[O-])cc(C(=O)Nc2ccc(S(=O)(=O)[O-])cc2S(=O)(=O)[O-])c1.[Na+].[Na+].[Na+].[Na+].[Na+].[Na+].[Na+].[Na+] [NF449 octasodium salt]	3.499
O=C(OCCN1CCOCC1)C1(c2ccccc2)CCCCC1	4.879
CCCC(C(=O)OCCN(CC)CC)(c1ccccc1)c1ccccc1.Cl [SKF-525A hydrochloride]	4.618
N/C(=N\C(=O)c1nc(Cl)c(N)nc1N)NCc1ccc(Cl)c(Cl)c1	2.918

Param item = `O=C(O)c1cc(=O)c2c(Cl)cc(Cl)cc2[nH]1` ; retrieve measured Replicate_2.
3.985

// lookup Replicate_2 for `Nc1cc(=O)[nH]c(N)n1`
3.4

Look up Replicate_2 for this compound: `CNC(=O)[C@H]1O[C@@H](n2cnc3c(N)ncnc32)[C@H](O)[C@@H]1O`
3.996

Replicate_2 for CC(O)C(C)OC(=O)[C@@H]1C[C@@H]2c3cccc4c3c(cn4C(C)C)C[C@H]2N(C)C1.O=C(O)/C=C\C(=O)O (stereo partly drawn) [LY-53,857 maleate] ?
4.894

Report Replicate_2 for N[C@H](C(=O)O)c1cc(O)cc(O)c1 [(S)-3,5-Dihydroxyphenylglycine] please.
3.983

---

- tested-on: SARS-CoV-2 3CLpro (Severe acute respiratory syndrome coronavirus 2)
- measurement-notes: biochemical
- Type: biochemical
- test-parameters: 4 h, sheet LOPAC_screen_w_protease; LOPAC1280 primary screen with protease, 5 µM compound; replicate 2; read-out: Replicate_2
Where a name gives a salt, the structure may show the parent alone.
The threshold is inclusive: inhibition at 5 µM of exactly 3% counts as class 1; values below receive class 0.

CN(C)[C@@H]1C(O)=C(C(N)=O)C(=O)[C@@]2(O)C(O)=C3C(=O)c4c(O)ccc(Cl)c4[C@@H](O)[C@H]3C[C@@H]12 [Demeclocycline hydrochloride]	class 0
Cc1cc(C(C)(C)C)c(O)c(C)c1CC1=NCCN1 [Oxymetazoline hydrochloride]	class 1

Test whether the compound Cn1cnc2c(NCc3ccccc3)nc(NCCO)nc21 [Olomoucine] records inhibition at 5 µM of 3% or higher.
class 1

In plain terms: is recorded inhibition at 5 µM at least 3% for C[C@H]1c2cccc(O)c2C(=O)C2=C(O)[C@]3(O)C(=O)C(C(N)=O)=C(O)[C@@H](N(C)C)[C@@H]3[C@@H](O)[C@@H]21 [Doxycycline hydrochloride] ?
class 0

Is inhibition at 5 µM for CC(C)(C)c1cc(/C=C(\C#N)C(N)=S)cc(C(C)(C)C)c1O [Tyrphostin AG 879] at or above 3%?
class 1
